// provenance: paper PMC10108392

- target.system: CB1R (Rattus norvegicus, UniProt P20272)
- Construct: Crude membrane fractions were prepared from the brain; from tissue; host or cells: Wistar rat whole brain, crude membrane fraction
- Sequence (P20272 whole entry): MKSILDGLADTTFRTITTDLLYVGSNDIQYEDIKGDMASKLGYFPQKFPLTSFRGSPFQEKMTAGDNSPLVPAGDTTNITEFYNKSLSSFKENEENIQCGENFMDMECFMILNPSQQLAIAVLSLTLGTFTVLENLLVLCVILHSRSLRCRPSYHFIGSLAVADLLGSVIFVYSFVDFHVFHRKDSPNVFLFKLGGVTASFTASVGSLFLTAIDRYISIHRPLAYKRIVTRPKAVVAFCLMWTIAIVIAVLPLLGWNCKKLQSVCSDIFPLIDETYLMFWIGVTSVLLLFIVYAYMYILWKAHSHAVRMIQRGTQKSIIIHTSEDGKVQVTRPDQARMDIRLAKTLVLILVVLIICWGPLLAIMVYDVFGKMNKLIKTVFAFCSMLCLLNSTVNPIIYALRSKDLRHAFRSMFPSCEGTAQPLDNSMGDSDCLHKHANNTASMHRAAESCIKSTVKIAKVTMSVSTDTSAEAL
- assay.protocol: Ligand stimulated [35S]GTPγS binding assay in rat brain membranes
- Assay type: biochemical
- details: read-out: [35S]GTPγS stimulation Emax
measurement.name: Emax (%)
Form entry: value (%) — number only.

Cc1c(C(=O)N[C@H](C(N)=O)C(C)(C)C)nn(-c2ccc(Cl)cc2)c1-n1cccc1 104

The value of Emax measured for the compound `Cc1c(C(=O)c2cccc3ccccc23)c2cccc3c2n1[C@H](CN1CCOCC1)CO3` turned out to be 170

The value of Emax measured for the compound `COC(=O)[C@@H](NC(=O)c1nn(-c2ccc(Cl)cc2Cl)c(-n2cccc2Cl)c1C)C(C)C` turned out to be 44

The value of Emax measured for the compound `COC(=O)[C@@H](NC(=O)c1cc(-n2cccc2)n(-c2ccc(Cl)cc2)n1)C(C)C` turned out to be 52

The value of Emax measured for the compound `COC(=O)[C@@H](NC(=O)c1cc(-n2cccc2)n(-c2ccc(Cl)cc2)n1)C(C)(C)C` turned out to be 43

The value of Emax measured for the compound `COC(=O)[C@@H](NC(=O)c1nn(-c2ccccc2)c(-n2cccc2)c1C)C(C)(C)C` turned out to be 55

The value of Emax measured for the compound `Cc1c(C(=O)N[C@H](C(N)=O)C(C)(C)C)nn(-c2ccccc2)c1-n1cccc1` turned out to be 57

----------
- target.system: CB1R (Rattus norvegicus, UniProt P20272)
- Construct: Crude membrane fractions were prepared from the brain
- assay.protocol: Ligand stimulated [35S]GTPγS binding assay in rat brain membranes
- details: rat brain membranes; ± SEM; read-out: [35S]GTPγS stimulation EC50
Reported values of pEC50 for individual entries
Note on units: pEC50 is unitless, being -log10 of a concentration expressed in mol/L.

Some compounds with recorded pEC50:
CNC(=O)[C@@H](NC(=O)c1cc(-n2cccc2)n(-c2ccccc2)n1)C(C)C 5.61
COC(=O)[C@@H](NC(=O)c1nn(-c2ccccc2)c(-n2cccc2)c1C)C(C)(C)C 5.99
Cc1c(C(=O)N[C@H](C(=O)O)C(C)C)nn(-c2ccc(Cl)cc2Cl)c1-n1cccc1Cl 5.46

The value of pEC50 measured for the compound `Cc1c(C(=O)N[C@H](C(=O)O)C(C)C)nn(-c2ccccc2)c1-n1cccc1` turned out to be 5.59

----------
- target.system: CB1R (Rattus norvegicus, UniProt P20272)
- Construct: Crude membrane fractions were prepared from the brain; from tissue; host or cells: Wistar rat whole brain, crude membrane fraction
- assay.protocol: Ligand stimulated [35S]GTPγS binding assay in rat brain membranes
- Format: biochemical
- details: read-out: [35S]GTPγS stimulation Emax
measurement.name: Emax (%)
Form entry: value (%) — number only.

CNC(=O)[C@@H](NC(=O)c1nn(-c2ccccc2)c(-n2cccc2)c1C)C(C)(C)C 102
CNC(=O)[C@@H](NC(=O)c1nn(-c2ccccc2)c(-n2cccc2)c1C)C(C)C 55
COC(=O)[C@@H](NC(=O)c1nn(-c2ccc(Cl)cc2)c(-n2cccc2)c1C)C(C)(C)C 99

The value of Emax measured for the compound `CNC(=O)[C@@H](NC(=O)c1cc(-n2cccc2)n(-c2ccc(Cl)cc2)n1)C(C)(C)C` turned out to be 120

The value of Emax measured for the compound `COC(=O)[C@@H](NC(=O)c1cc(-n2cccc2)n(-c2ccccc2)n1)C(C)(C)C` turned out to be 44
